target: SIRT1 (Homo sapiens); test: TAMRA based mass spectrometry assay of SIRT1 activity; assay type: biochemical; details: TAMRA assay; percent maximum fold activation; read-out: TAMRA % Fold Act
Sequence (Q96EB6 whole entry): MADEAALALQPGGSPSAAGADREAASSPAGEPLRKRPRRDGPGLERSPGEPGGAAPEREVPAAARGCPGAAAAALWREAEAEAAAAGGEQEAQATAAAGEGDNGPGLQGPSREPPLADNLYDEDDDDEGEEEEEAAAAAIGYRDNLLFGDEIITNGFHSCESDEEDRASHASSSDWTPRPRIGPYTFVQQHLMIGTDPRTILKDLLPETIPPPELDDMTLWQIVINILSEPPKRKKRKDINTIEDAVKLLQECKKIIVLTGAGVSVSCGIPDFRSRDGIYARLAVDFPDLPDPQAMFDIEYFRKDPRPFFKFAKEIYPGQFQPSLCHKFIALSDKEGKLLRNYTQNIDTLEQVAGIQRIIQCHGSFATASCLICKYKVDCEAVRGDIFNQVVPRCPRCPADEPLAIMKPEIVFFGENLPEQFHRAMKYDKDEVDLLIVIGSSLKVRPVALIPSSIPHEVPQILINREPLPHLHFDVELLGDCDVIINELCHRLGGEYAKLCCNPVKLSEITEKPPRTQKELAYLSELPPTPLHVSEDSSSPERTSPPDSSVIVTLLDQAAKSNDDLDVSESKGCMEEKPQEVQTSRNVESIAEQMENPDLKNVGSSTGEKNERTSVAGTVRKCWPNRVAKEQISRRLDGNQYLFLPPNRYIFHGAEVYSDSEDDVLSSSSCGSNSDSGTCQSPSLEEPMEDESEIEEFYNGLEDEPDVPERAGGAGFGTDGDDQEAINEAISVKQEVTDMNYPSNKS
Reported Property: Emax

Input line: Value lookup for Emax; key = `O=C(Nc1cncc(F)c1)c1cnn2ccc(-c3ccccc3C(F)(F)F)nc12`
Output line: ≥ 350%

Input line: Entry `O=C(Nc1cnc2ccc(-c3ccccc3C(F)(F)F)nn12)c1cc(O)ncn1` : reported Emax = ?
Output line: ≥ 350%

Input line: Record request: Emax value, item `Cc1cc(C)nc(NC(=O)c2c(C)nc3ccc(-c4cccc(OC[C@H](O)CO)c4)nn23)c1`
Output line: ≥ 350%

Input line: Give its Emax value. Item: `O=C(Nc1cccc(CN2CCOCC2)n1)c1cnn2ccc(-c3ccccc3C(F)(F)F)nc12`
Output line: ≥ 350%

Input line: Dear colleague, I am looking for the recorded Emax of the following compound: `Cc1cccc(C(=O)Nc2cnc3ccc(-c4ccccc4C(F)(F)F)nn23)n1`
Output line: ≥ 350%

Next:
Input line: Using the record for `COc1cc(NC(=O)c2cnn3ccc(-c4ccccc4OC(F)(F)F)nc23)ncn1` , report its Emax.
Output line: ≥ 350%

Input line: // returns reported Emax for input `O=C(Nc1cnn2ccc(-c3ccccc3OC(F)(F)F)nc12)c1cc(O)ncn1`
Output line: ≥ 350%
